# study target: T1, TFAM (UniProt Q00059 43-246)
# T1 sequence: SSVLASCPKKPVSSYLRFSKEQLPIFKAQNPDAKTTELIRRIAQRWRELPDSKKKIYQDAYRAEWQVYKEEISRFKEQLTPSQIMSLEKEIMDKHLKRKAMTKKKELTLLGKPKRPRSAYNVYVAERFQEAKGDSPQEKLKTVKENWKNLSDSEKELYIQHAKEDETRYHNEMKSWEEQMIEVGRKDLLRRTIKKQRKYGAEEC
# assay remarks: fluorescence polarization; 300 mM NaCl; EMSA: 10 mM HEPES pH 8.0, 500 mM NaCl, 2 mM DTT, 130 ug/ml BSA, 5% glycerol, 100 nM DNA, 30 min on ice then 10 min RT; FP: 10 mM HEPES pH 8.0, 150-400 mM NaCl
# condition info: protein: recombinant; tags: His-MBP N-terminal, removed by TEV; label: 5'-Cy3 on strand 1 (EMSA); 6-FAM (FP); blunt
assay endpoint: pKd
Notebook: values listed as pKd are -log10 of the concentration (mol/L).

> print(dat)
                                     binder  result.number
1  DNAAA (dsDNA) DNA 1: AAAAAGAATCATTTGGATATATAGGTAT DNA 2: ATACCTATATATCCAAATGATTCTTTTT           6.06

Please examine the following record next.
Return reported pKd; argument: DNAGG (dsDNA) DNA 1: AAAAAGAACCATTTGGATACATAGGTAT DNA 2: ATACCTATGTATCCAAATGGTTCTTTTT
5.92
